molecular target: Proton Pump (H^+/K^+-ATPase) (Sus scrofa); assay: Inhibitory effects on proton pump (H^+/K^+-ATPase) activity; details: hog gastric vesicles; K^+ stimulated H^+/K^+-ATPase activity; 30 minutes at 37° C.
Where a name gives a salt, the structure may show the parent alone.
IC50 values, listed per item
Give just the numeric value; nM need not be written.

Cc1c(C)n(Cc2ccccc2)c2c(N3CCc4ccccc4C3)nc(C(N)=O)cc12; 112
Cc1c(C)n(CC2CC2)c2c(N3CCc4ccccc4C3)nc(C(=O)N3CCCCC3)cc12 [Example 793, hydrochloride]; 117
Cc1[nH]c2c(N3CCc4ccc(F)cc4C3C)nccc2c1C (stereo not shown) [Example 541, hydrochloride]; 350

The record that follows has no IC50 shown yet.
For record Cc1c(C)n(Cc2cccc(F)c2)c2c(CCc3ccccc3)nccc12 [Example 449, hydrochloride] the listed IC50 is 87

* * *

IC50 values, listed per item
molecular target: Proton Pump (H^+/K^+-ATPase) (Sus scrofa, UniProt P19156); assay: Inhibitory effects on proton pump (H^+/K^+-ATPase) activity; details: hog gastric vesicles; K^+ stimulated H^+/K^+-ATPase activity; 30 minutes at 37° C.
Sequence (P19156 2-1034 limits assumed): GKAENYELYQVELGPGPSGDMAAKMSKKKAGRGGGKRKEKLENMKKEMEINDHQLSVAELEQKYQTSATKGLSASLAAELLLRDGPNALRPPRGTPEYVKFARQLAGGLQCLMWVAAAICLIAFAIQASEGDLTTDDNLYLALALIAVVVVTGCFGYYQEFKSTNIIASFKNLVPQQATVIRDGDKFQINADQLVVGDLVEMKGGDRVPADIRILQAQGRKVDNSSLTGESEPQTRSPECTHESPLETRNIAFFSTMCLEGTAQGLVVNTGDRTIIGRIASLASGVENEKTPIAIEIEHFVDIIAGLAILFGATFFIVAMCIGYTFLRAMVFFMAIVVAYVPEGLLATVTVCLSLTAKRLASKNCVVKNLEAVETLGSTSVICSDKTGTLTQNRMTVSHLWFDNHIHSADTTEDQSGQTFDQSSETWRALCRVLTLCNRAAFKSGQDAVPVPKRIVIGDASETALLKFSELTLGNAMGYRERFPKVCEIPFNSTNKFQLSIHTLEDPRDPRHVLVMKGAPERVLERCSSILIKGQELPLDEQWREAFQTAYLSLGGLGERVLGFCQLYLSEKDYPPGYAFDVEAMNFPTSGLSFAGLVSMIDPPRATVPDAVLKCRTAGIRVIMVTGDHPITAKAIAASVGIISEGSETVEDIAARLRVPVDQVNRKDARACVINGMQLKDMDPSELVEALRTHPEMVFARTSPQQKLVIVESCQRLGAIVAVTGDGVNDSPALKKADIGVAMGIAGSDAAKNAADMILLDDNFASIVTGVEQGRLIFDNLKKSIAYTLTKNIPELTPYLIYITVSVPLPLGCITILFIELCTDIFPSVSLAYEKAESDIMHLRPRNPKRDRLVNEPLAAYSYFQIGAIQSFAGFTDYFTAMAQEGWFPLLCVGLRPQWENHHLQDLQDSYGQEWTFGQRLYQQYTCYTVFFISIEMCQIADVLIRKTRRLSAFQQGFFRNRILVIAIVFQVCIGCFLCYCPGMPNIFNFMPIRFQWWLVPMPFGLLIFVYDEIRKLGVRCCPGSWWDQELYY
Sequence (P18434 whole entry partner): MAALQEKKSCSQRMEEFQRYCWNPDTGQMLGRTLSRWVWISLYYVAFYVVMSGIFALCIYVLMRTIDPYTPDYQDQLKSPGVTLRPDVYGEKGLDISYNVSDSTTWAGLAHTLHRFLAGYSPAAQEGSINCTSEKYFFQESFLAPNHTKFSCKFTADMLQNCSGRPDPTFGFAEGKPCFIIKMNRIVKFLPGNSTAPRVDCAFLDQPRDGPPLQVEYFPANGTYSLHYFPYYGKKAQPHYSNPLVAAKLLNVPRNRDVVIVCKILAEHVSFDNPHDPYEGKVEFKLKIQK
Where a name gives a salt, the structure may show the parent alone.
Give just the numeric value; nM need not be written.

Recorded IC50, per entry:
CCCn1c(C)c(C)c2ccnc(NCc3ccccc3C)c21 [Example 230, hydrochloride]; 92
Cc1c(C)n(CC2CC2)c2c(CN(C)c3ccc(F)cc3)nccc12 [Example 112, hydrochloride]; 151
Cc1c(C)n(CC2CC2)c2c(N3CCc4ccccc4C3)nc(C(=O)N3CCN(C)CC3)cc12 [Example 817, hydrochloride]; 24

For record C=CCn1c(C)c(C)c2ccnc(N3CCc4ccccc4C3)c21 [Example 492, phosphate] the listed IC50 is 7

* * *

IC50 values, listed per item
molecular target: Proton Pump (H^+/K^+-ATPase) (Sus scrofa); test: Inhibitory effects on proton pump (H^+/K^+-ATPase) activity; conditions: hog gastric vesicles; K^+ stimulated H^+/K^+-ATPase activity; 30 minutes at 37° C.
Where a name gives a salt, the structure may show the parent alone.

COc1ccc(Cn2c(C)c(C)c3ccnc(N4CCc5ccccc5C4)c32)cc1.Cl [Example 482, hydrochloride]; 360 nM
Cc1c(C)n(Cc2ccc(C(F)(F)F)cc2)c2c(N3CCc4ccccc4C3)nccc12 [Example 500, hydrochloride]; 270 nM
C=CCn1c(C)c(C)c2ccnc(CCc3ccccc3)c21 [Example 448, hydrochloride]; 230 nM
COCCn1c(C)c(C)c2ccnc(N3CCc4ccc(F)cc4C3C)c21 (stereo not drawn) [Example 546, hydrochloride]; 250 nM
Cc1c(C)n(Cc2cccc(F)c2)c2c(N3CCc4ccccc4C3)nc(CN3CCOCC3)cc12 [Example 872, hydrochloride]; 43 nM

// assay Proton Pump (H^+/K^+-ATPase) (Sus scrofa), entry C=Cc1ccc(-c2nccc3c(C)c(C)n(Cc4cccc(F)c4)c23)cc1 [Example 243, hydrochloride] , IC50 value = 90 nM

// assay Proton Pump (H^+/K^+-ATPase) (Sus scrofa), entry C=CCn1c(C)c(C)c2ccnc(N3CCc4ccccc4C3)c21 [Example 494, hydrobromide] , IC50 value = 4 nM

// assay Proton Pump (H^+/K^+-ATPase) (Sus scrofa), entry C=CCn1c(C)c(C)c2cc(C(=O)NCc3cccc(Cl)c3)nc(N3CCc4ccccc4C3)c21 [Example 758, hydrochloride] , IC50 value = 316 nM

// assay Proton Pump (H^+/K^+-ATPase) (Sus scrofa), entry Cc1c(C)n(Cc2ccc(OC(F)(F)F)cc2)c2c(N3CCc4ccccc4C3)nccc12 [Example 479, hydrochloride] , IC50 value = 1140 nM

// assay Proton Pump (H^+/K^+-ATPase) (Sus scrofa), entry CCn1c(C)c(C)c2cc(C(=O)N3CCCC(O)C3)nc(N3CCc4ccccc4C3)c21 (stereo not drawn) [Example 807, hydrochloride] , IC50 value = 23 nM

// assay Proton Pump (H^+/K^+-ATPase) (Sus scrofa), entry C=CCn1c(C)c(C)c2ccnc(C=Cc3ccccc3)c21 [Example 416, hydrochloride] , IC50 value = 120 nM

// assay Proton Pump (H^+/K^+-ATPase) (Sus scrofa), entry CCCn1c(C)c(C)c2ccnc(-c3ccc4ccccc4c3)c21 [Example 407, hydrochloride] , IC50 value = 113 nM

// assay Proton Pump (H^+/K^+-ATPase) (Sus scrofa), entry C=Cc1ccc(-c2nccc3c(C)c(C)n(Cc4ccccc4)c23)cc1 [Example 246, hydrochloride] , IC50 value = 110 nM

// assay Proton Pump (H^+/K^+-ATPase) (Sus scrofa), entry C=Cc1ccc(-c2nccc3c(C)c(C)n(CCOC)c23)cc1 [Example 247, hydrochloride] , IC50 value = 90 nM

// assay Proton Pump (H^+/K^+-ATPase) (Sus scrofa), entry C=CCCn1c(C)c(C)c2ccnc(N(C)Cc3ccc(F)cc3)c21 [Example 157, hydrochloride] , IC50 value = 380 nM

* * *

biological target: Proton Pump (H^+/K^+-ATPase) (Sus scrofa, UniProt P19156); test: Inhibitory effects on proton pump (H^+/K^+-ATPase) activity; details: hog gastric vesicles; K^+ stimulated H^+/K^+-ATPase activity; 30 minutes at 37° C.
pIC50: −log10 of the molar value. Counter-ions that a name gives are not always drawn.
Note to self: values exactly at 7 are T. So pIC50 at or above 7 is T, below is F.

COc1cccc(Cn2c(C)c(C)c3ccnc(-c4ccc(C)cc4)c32)c1 [Example 278, hydrochloride]; F
Cc1c(CO)c2ccnc(-c3ccc4ccccc4c3)c2n1Cc1cccc(F)c1 [Example 411, hydrochloride]; F
Cc1c(C)n(Cc2cccc(Cl)c2)c2c(N3CCc4ccccc4C3)nc(C#N)cc12 [Example 689]; F
CCC1c2ccccc2CCN1c1nccc2c(C)c(C)n(C)c12 (stereo not drawn) [Example 575, hydrochloride]; F
C=CCn1c(C)c(C)c2ccnc(N3CCc4ccc(F)cc4C3C)c21 (stereo not drawn) [Example 544, hydrochloride]; T
CSc1ccc(-c2nccc3c(C)c(C)[nH]c23)cc1 [Example 262]; F
Cc1c(C)n(Cc2cccc(F)c2)c2c(N3CCc4ccccc4C3)nc(CNC(C)(C)C)cc12 [Example 869, hydrochloride]; T
C=CCn1c(C)c(C)c2ccnc(N3CCc4ccc(Cl)cc4C3C)c21 (stereo not drawn) [Example 531, hydrochloride]; F
Cc1ccc(Cn2c(C)c(C)c3ccnc(N4CCc5ccc(F)cc5C4C)c32)cc1 (stereo not drawn) [Example 548, hydrochloride]; F
CNC(=O)c1cc2c(C)c(C)n(Cc3ccccc3)c2c(N2CCc3ccccc3C2)n1 [Example 772, hydrochloride]; F

Query :: Hi team, for Cc1c(C)n(Cc2ccccc2F)c2c(N3CCc4ccccc4C3)nccc12 [Example 483, hydrochloride] , is the recorded pIC50 at or above 7?
Result :: F

Query :: Hi team, for COc1ccc(Cn2c(C)c(C)c3ccnc(N4CCc5cc(F)ccc5C4C)c32)cc1 (stereo not drawn) [Example 566, hydrochloride] , is the recorded pIC50 at or above 7?
Result :: F

Query :: Hi team, for C=CCn1c(C)c(C)c2cc(CN3CCN(C)CC3)nc(N3CCc4ccccc4C3)c21 [Example 879, hydrochloride] , is the recorded pIC50 at or above 7?
Result :: T

Query :: Hi team, for CCN1CCN(C(=O)c2cc3c(C)c(C)n(CC4CC4)c3c(N3CCc4ccccc4C3)n2)CC1 [Example 818, hydrochloride] , is the recorded pIC50 at or above 7?
Result :: T

Query :: Hi team, for Cc1c(C)n(Cc2cccc(F)c2)c2c(N3CCc4ccccc4C3)nc(C(=O)N3CCCCC3)cc12 [Example 796, hydrochloride] , is the recorded pIC50 at or above 7?
Result :: F

Query :: Hi team, for COCCn1c(C)c(C)c2ccnc(N3CCc4ccccc4C3C)c21 (stereo not drawn) [Example 555, hydrochloride] , is the recorded pIC50 at or above 7?
Result :: F

Query :: Hi team, for C#CCn1c(C)c(C)c2cc(Cl)nc(N3CCc4ccccc4C3)c21 [Example 659] , is the recorded pIC50 at or above 7?
Result :: F

Query :: Hi team, for Cc1c(C)n(CC2CC2)c2c(N(C)Cc3ccc(F)cc3)nccc12 [Example 144, hydrochloride] , is the recorded pIC50 at or above 7?
Result :: F

* * *

target: Proton Pump (H^+/K^+-ATPase) (Sus scrofa); assay: Inhibitory effects on proton pump (H^+/K^+-ATPase) activity; conditions: hog gastric vesicles; K^+ stimulated H^+/K^+-ATPase activity; 30 minutes at 37° C.
Counter-ions that a name gives are not always drawn.
log10(IC50) values, listed per item
The base-10 logarithm of IC50, taken with IC50 in nM, is what appears here.

Cc1c(C)n(CC(C)C)c2c(N(C)Cc3ccc(F)cc3)nccc12 [Example 149, hydrochloride]; 2.32
Cc1c(C)n(Cc2cccc(F)c2)c2c(CN(C)c3ccc(F)cc3)nccc12 [Example 114, hydrochloride]; 1.43
CCn1c(C)c(C)c2cc(N)nc(N3CCc4ccccc4C3)c21 [Example 849, hydrochloride]; 2.11

For record CCC1c2ccccc2CCN1c1nccc2c(C)c(C)n(CC)c12 (stereo not shown) [Example 576, hydrochloride] the listed log10(IC50) is 2.34

For record Cc1c(C)n(CC2CC2)c2c(N3CCc4ccccc4C3)nc(C(=O)N3CCOCC3)cc12 [Example 778, hydrochloride] the listed log10(IC50) is 1.59

For record CCn1c(C)c(C)c2cc(C(=O)N3CCC(CO)CC3)nc(N3CCc4ccccc4C3)c21 [Example 805, hydrochloride] the listed log10(IC50) is 1.49

For record C=CCn1c(C)c(C)c2ccnc(N3CCc4ccccc4C3C)c21.Cl (stereo not shown) [Example 553, hydrochloride] the listed log10(IC50) is 1.41

For record CSc1ccc(-c2nccc3c(C)c(C)n(Cc4ccc(C)cc4)c23)cc1 [Example 267, hydrochloride] the listed log10(IC50) is 2.04

For record C=CCn1c(C)c(C)c2ccnc(N3CCc4ccccc4C3)c21 [Example 490, nitrate] the listed log10(IC50) is 0.48

For record CCCn1c(C)c(C)c2cc(C(=O)N3CCOCC3)nc(N3CCc4ccccc4C3)c21 [Example 781, hydrochloride] the listed log10(IC50) is 1.59

For record COc1cccc(Cn2c(C)c(C)c3cc(N)nc(N4CCc5ccccc5C4)c32)c1 [Example 848, hydrochloride] the listed log10(IC50) is 1.46
